- Tested on: 695427-040-R-J1-PDC complex spheroids, viability percent T/C;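 further: spheroids exposed to compounds for seven days before readout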
- protocol.notes: Anticancer human tumor 695427-040-R-J1-PDC patient-derived colon adenocarcinoma cell line growth inhibition [GQUAD]
- study.conditions: second compound 0.1 µM; first compound 0.0316 µM; stronger effect = lower value
quantity: viability, T/C (%)
Express it in %; write the number only.

Problem: Quick one: viability, T/C of C=CCn1c(=O)c2cnc(Nc3ccc(N4CCN(C)CC4)cc3)nc2n1-c1cccc(C(C)(C)O)n1 + CN(C)c1ccc(Nc2c3ccc(NC(=O)CCN4CCCC4)cc3nc3cc(NC(=O)CCN4CCCC4)ccc23)cc1 ?
Result: 97.8

Problem: Can you share its viability, T/C? I mean this molecule: COc1ccc([C@@H](O)c2cc(-c3ncnc4cc(N5CCOCC5)ccc34)c(F)cc2Cl)nn1 + Cc1[nH]c2ccc(F)cc2c1-c1nc2c3cccnc3c3ncccc3c2[nH]1
Result: 103

Problem: Reported viability, T/C for Cn1ncnc1[C@H]1c2n[nH]c(=O)c3cc(F)cc(c23)N[C@@H]1c1ccc(F)cc1 + Cc1[nH]c2ccc(F)cc2c1-c1nc2c3cccnc3c3ncccc3c2[nH]1 : what is it?
Result: 79.8

Problem: Fill in the blank: the reported viability, T/C of O=C(NO)c1cnc(N2CCN(S(=O)(=O)c3ccc4ccccc4c3)CC2)nc1 + Cc1cnc(CNC(=O)c2c(=O)c3ccc(N4CCCN(C)CC4)nc3n3c2sc2ccccc23)cn1 is ____.
Result: 87.2

Problem: If you can, please state the reported viability, T/C value of Nc1ccn(C2OC(CO)C(O)C2(F)F)c(=O)n1 (stereo unspecified) + Cc1[nH]c2ccc(F)cc2c1-c1nc2c3cccnc3c3ncccc3c2[nH]1 .
Result: 92.2

Problem: Any idea what viability, T/C was measured for CC(C)(O)C1CCC(Nc2ccc3ncc(-c4cccc(C(F)(F)F)c4)n3n2)CC1 (stereo unspecified) + CN(C)c1ccc(Nc2c3ccc(NC(=O)CCN4CCCC4)cc3nc3cc(NC(=O)CCN4CCCC4)ccc23)cc1 ?
Result: 106

Problem: Item under review: CC1COCCN1c1cc(C2(S(C)(=N)=O)CC2)nc(-c2ccnc3[nH]ccc23)n1 (stereo unspecified) + Cc1[nH]c2ccc(F)cc2c1-c1nc2c3cccnc3c3ncccc3c2[nH]1 . Reported viability, T/C?
Result: 103

Problem: What value of measured viability, T/C is listed for Cn1ncnc1[C@H]1c2n[nH]c(=O)c3cc(F)cc(c23)N[C@@H]1c1ccc(F)cc1 + CN(C)c1ccc(Nc2c3ccc(NC(=O)CCN4CCCC4)cc3nc3cc(NC(=O)CCN4CCCC4)ccc23)cc1 ?
Result: 92.8

Problem: Fill blank: measured viability, T/C of the molecule C#Cc1c(F)ccc2cc(O)cc(-c3ncc4c(N5CC6CCC(C5)N6)nc(OCC56CCCN5CC(F)C6)nc4c3F)c12 (stereo unspecified) + CN(C)c1ccc(Nc2c3ccc(NC(=O)CCN4CCCC4)cc3nc3cc(NC(=O)CCN4CCCC4)ccc23)cc1 is ____.
Result: 106

Problem: Can you share its viability, T/C? I mean this molecule: CC(C)n1c(=O)n(C)c2cnc3cc(F)c(-c4ccc(OCCCN5CCCCC5)nc4)cc3c21 + Cc1[nH]c2ccc(F)cc2c1-c1nc2c3cccnc3c3ncccc3c2[nH]1
Result: 101

Problem: Consider the molecule shown here: O=c1[nH]cc(F)c(=O)[nH]1 + CN(C)c1ccc(Nc2c3ccc(NC(=O)CCN4CCCC4)cc3nc3cc(NC(=O)CCN4CCCC4)ccc23)cc1 What is its recorded viability, T/C?
Result: 103

Problem: For the molecule COc1ncnc(C2CC2)c1-c1ncc2cnn(Cc3ccc(-c4nc(C(F)(F)F)cn4C(C)C)cc3)c2n1 + CN(C)c1ccc(Nc2c3ccc(NC(=O)CCN4CCCC4)cc3nc3cc(NC(=O)CCN4CCCC4)ccc23)cc1 , what viability, T/C is on record?
Result: 105

Problem: // query viability, T/C value for entry COc1ncnc(C2CC2)c1-c1ncc2cnn(Cc3ccc(-c4nc(C(F)(F)F)cn4C(C)C)cc3)c2n1 + Cc1[nH]c2ccc(F)cc2c1-c1nc2c3cccnc3c3ncccc3c2[nH]1
Result: 107

Problem: Consider the molecule shown here: CC(C)n1c(=O)n(C)c2cnc3cc(F)c(-c4ccc(OCCCN5CCCCC5)nc4)cc3c21 + Cc1cnc(CNC(=O)c2c(=O)c3ccc(N4CCCN(C)CC4)nc3n3c2sc2ccccc23)cn1 What is its recorded viability, T/C?
Result: 87.1

Problem: Fill in the blank: the reported viability, T/C of CC(=O)O[C@H]1C(=O)[C@@]2(C)[C@H]([C@H](OC(=O)c3ccccc3)[C@]3(O)C[C@H](OC(=O)[C@H](O)[C@@H](NC(=O)c4ccccc4)c4ccccc4)C(C)=C1C3(C)C)[C@]1(OC(C)=O)CO[C@@H]1C[C@@H]2O + Cc1cnc(CNC(=O)c2c(=O)c3ccc(N4CCCN(C)CC4)nc3n3c2sc2ccccc23)cn1 is ____.
Result: 90.5

Problem: # query: viability, T/C of entry COc1cc(C2c3cc4c(cc3C(OC3OC5COC(C)OC5C(O)C3O)C3COC(=O)C23)OCO4)cc(OC)c1O (stereo unspecified) + Cc1[nH]c2ccc(F)cc2c1-c1nc2c3cccnc3c3ncccc3c2[nH]1
Result: 110

Problem: What value of measured viability, T/C is listed for Cc1[nH]c2ccccc2c1CCNCc1ccc(/C=C/C(=O)NO)cc1 + Cc1cnc(CNC(=O)c2c(=O)c3ccc(N4CCCN(C)CC4)nc3n3c2sc2ccccc23)cn1 ?
Result: 80.5

Problem: Fill in: viability, T/C of CC1COCCN1c1cc(C2(O)CC3CCC(C2)O3)c2cnn(-c3ccn[nH]3)c2n1 (stereo unspecified) + Cc1cnc(CNC(=O)c2c(=O)c3ccc(N4CCCN(C)CC4)nc3n3c2sc2ccccc23)cn1 is ___
Result: 79

Problem: What viability, T/C value was documented for this molecule, CC(C)(O)C1CCC(Nc2ccc3ncc(-c4cccc(C(F)(F)F)c4)n3n2)CC1 (stereo unspecified) + Cc1[nH]c2ccc(F)cc2c1-c1nc2c3cccnc3c3ncccc3c2[nH]1 ?
Result: 110

Problem: Query: viability, T/C; subject: CCCS(=O)(=O)Nc1ccc(F)c(C(=O)c2c[nH]c3ncc(-c4ccc(Cl)cc4)cc23)c1F + Cc1[nH]c2ccc(F)cc2c1-c1nc2c3cccnc3c3ncccc3c2[nH]1
Result: 109

Problem: Would you mind telling me what viability, T/C value was observed for Cc1[nH]c2ccccc2c1CCNCc1ccc(/C=C/C(=O)NO)cc1 + Cc1[nH]c2ccc(F)cc2c1-c1nc2c3cccnc3c3ncccc3c2[nH]1 ?
Result: 93.4

The origin of these recorded values is PubChem BioAssay AID2060492.
